Test: Ketoprofen plasma levels achieved by on-knee patch delivery (Example 7)
Type: in vivo, human
Conditions: human, plasma, topical, 136 mg, Mean Ketoprofen Plasma Concentration, Single Patch; time point 10 hrs; N = 22
property_name: concentration at 10 h

1) CC(C(=O)O)c1cccc(C(=O)c2ccccc2)c1 (stereo not shown) = 132 ng/mL

###

Assay: Ketoprofen plasma levels achieved by on-knee patch delivery (Example 7)
Type: in vivo, human
Settings: human, plasma, topical, 272 mg, Mean Ketoprofen Plasma Concentration, Two Patches; time point 18 hrs; N = 22
property_name: concentration at 18 h

1. CC(C(=O)O)c1cccc(C(=O)c2ccccc2)c1 (stereo not shown) = 68.4 ng/mL
